meta.source: patent US20260085129A1

Molecular target: T1, porcine CD163, membrane-bound form on porcine pulmonary alveolar macrophage (pPAM) WT cells (porcine, UniProt Q2VL90 47-1115)
T1 construct: Native CD163 on primary cells; also called membrane CD163; cell-surface CD163
T1 sequence: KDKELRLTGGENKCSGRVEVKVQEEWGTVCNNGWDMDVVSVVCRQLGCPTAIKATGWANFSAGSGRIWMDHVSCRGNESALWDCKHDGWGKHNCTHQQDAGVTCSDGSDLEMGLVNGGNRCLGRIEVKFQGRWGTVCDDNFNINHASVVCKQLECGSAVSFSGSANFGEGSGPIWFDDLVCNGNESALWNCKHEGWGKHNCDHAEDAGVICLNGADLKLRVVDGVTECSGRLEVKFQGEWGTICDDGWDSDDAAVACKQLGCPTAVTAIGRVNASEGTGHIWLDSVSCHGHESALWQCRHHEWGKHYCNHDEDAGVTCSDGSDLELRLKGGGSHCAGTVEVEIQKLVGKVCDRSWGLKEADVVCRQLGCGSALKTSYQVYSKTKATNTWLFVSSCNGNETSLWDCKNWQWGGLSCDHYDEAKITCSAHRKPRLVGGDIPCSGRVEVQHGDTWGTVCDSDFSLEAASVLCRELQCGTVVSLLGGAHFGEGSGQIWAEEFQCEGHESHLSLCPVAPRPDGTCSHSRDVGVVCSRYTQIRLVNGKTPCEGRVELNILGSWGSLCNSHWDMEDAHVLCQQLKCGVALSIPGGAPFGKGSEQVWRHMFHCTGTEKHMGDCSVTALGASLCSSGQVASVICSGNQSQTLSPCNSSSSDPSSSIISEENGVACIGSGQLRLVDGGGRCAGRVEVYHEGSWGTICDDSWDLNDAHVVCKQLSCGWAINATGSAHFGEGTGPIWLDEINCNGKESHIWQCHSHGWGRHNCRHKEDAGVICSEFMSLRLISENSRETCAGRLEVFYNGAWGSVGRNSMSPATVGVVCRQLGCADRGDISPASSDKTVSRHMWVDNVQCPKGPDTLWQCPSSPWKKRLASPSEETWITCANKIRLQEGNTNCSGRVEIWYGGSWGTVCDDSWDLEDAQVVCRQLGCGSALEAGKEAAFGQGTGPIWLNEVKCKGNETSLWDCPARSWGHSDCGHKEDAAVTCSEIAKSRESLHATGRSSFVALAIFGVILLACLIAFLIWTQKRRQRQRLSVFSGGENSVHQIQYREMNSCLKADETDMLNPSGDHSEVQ
Assay: dose-response FACS on pPAM WT cells, anti-FLAG-biotin and streptavidin R-PE detection
propertyMeasured: pEC50
In textbook form, pEC50 equals minus log to base ten of the concentration in mol/L.

Reference set (4 entries):
binder	pEC50
03E11 + 03D03 2(G4S) biparatopic VHH construct (bispecific antibody, Biparatopic: two anti-porcine CD163 VHHs in one chain; also called 19-17; 03D03+03E11; not shown: FLAG and His tags) QVQLQESGGGLVQVGSSLRLSCVTSGRTPSRYVMGWFRQAPGQEREFVAAISWSGRAPYADSVKGRFTISRDNAKNTVYLQMNSLKPEDTGVYYCAGGEGAIKWTTLDAYDYWGQGTQVTVSSGGGGSGGGGSQLQLVESGGGLVQPGGSLRLSCAASGFTLDDYTIGWFRQAPGKEREGVSCINSITSNTYYADSVKGRFTISRDNAKNTVYLQMNSLTAEDTAIYYCAADSGLFSGSSCLKYRAMRFGSWGQGTQVTVSS	8.08
17B11 + 03D03 2(G4S) biparatopic VHH construct (bispecific antibody, Biparatopic; not shown: FLAG and His tags) QVQLVESGGGLVQAGGSLRLSCAASGRTFSSYAMGWFRQTPGKDREFVARIGWTGGTTIYADSVKGRFTISRDNAKNTVYLQMNSLKPEDTAVYYCAADQAGWRTAGVRNTYEYDYWGQGTQVTVSSGGGGSGGGGSQLQLVESGGGLVQPGGSLRLSCAASGFTLDDYTIGWFRQAPGKEREGVSCINSITSNTYYADSVKGRFTISRDNAKNTVYLQMNSLTAEDTAIYYCAADSGLFSGSSCLKYRAMRFGSWGQGTQVTVSS	8.18
17B11 + 03D03 + 03E11 2(G4S) triparatopic VHH construct (bispecific antibody, Triparatopic; not shown: FLAG and His tags) QVQLVESGGGLVQAGGSLRLSCAASGRTFSSYAMGWFRQTPGKDREFVARIGWTGGTTIYADSVKGRFTISRDNAKNTVYLQMNSLKPEDTAVYYCAADQAGWRTAGVRNTYEYDYWGQGTQVTVSSGGGGSGGGGSQLQLVESGGGLVQPGGSLRLSCAASGFTLDDYTIGWFRQAPGKEREGVSCINSITSNTYYADSVKGRFTISRDNAKNTVYLQMNSLTAEDTAIYYCAADSGLFSGSSCLKYRAMRFGSWGQGTQVTVSSGGGGSGGGGSQVQLQESGGGLVQVGSSLRLSCVTSGRTPSRYVMGWFRQAPGQEREFVAAISWSGRAPYADSVKGRFTISRDNAKNTVYLQMNSLKPEDTGVYYCAGGEGAIKWTTLDAYDYWGQGTQVTVSS	8.10
03E11 + 17B11 + 03D03 2(G4S) triparatopic VHH construct (bispecific antibody, Triparatopic; not shown: FLAG and His tags) QVQLQESGGGLVQVGSSLRLSCVTSGRTPSRYVMGWFRQAPGQEREFVAAISWSGRAPYADSVKGRFTISRDNAKNTVYLQMNSLKPEDTGVYYCAGGEGAIKWTTLDAYDYWGQGTQVTVSSGGGGSGGGGSQVQLVESGGGLVQAGGSLRLSCAASGRTFSSYAMGWFRQTPGKDREFVARIGWTGGTTIYADSVKGRFTISRDNAKNTVYLQMNSLKPEDTAVYYCAADQAGWRTAGVRNTYEYDYWGQGTQVTVSSGGGGSGGGGSQLQLVESGGGLVQPGGSLRLSCAASGFTLDDYTIGWFRQAPGKEREGVSCINSITSNTYYADSVKGRFTISRDNAKNTVYLQMNSLTAEDTAIYYCAADSGLFSGSSCLKYRAMRFGSWGQGTQVTVSS	7.74

The record that follows has no pEC50 shown yet.
**Query** Requested field: pEC50. Item: 03E11 + 17B11 5(G4S) biparatopic VHH construct (bispecific antibody, Biparatopic; not shown: FLAG and His tags) QVQLQESGGGLVQVGSSLRLSCVTSGRTPSRYVMGWFRQAPGQEREFVAAISWSGRAPYADSVKGRFTISRDNAKNTVYLQMNSLKPEDTGVYYCAGGEGAIKWTTLDAYDYWGQGTQVTVSSGGGGSGGGGSGGGGSGGGGSGGGGSQVQLVESGGGLVQAGGSLRLSCAASGRTFSSYAMGWFRQTPGKDREFVARIGWTGGTTIYADSVKGRFTISRDNAKNTVYLQMNSLKPEDTAVYYCAADQAGWRTAGVRNTYEYDYWGQGTQVTVSS
**Result** 8.08
